The origin of these recorded values is ChEMBL document CHEMBL1137016.

Target: Adenosine receptor A2a (Homo sapiens)
Sequence (P29274 whole entry): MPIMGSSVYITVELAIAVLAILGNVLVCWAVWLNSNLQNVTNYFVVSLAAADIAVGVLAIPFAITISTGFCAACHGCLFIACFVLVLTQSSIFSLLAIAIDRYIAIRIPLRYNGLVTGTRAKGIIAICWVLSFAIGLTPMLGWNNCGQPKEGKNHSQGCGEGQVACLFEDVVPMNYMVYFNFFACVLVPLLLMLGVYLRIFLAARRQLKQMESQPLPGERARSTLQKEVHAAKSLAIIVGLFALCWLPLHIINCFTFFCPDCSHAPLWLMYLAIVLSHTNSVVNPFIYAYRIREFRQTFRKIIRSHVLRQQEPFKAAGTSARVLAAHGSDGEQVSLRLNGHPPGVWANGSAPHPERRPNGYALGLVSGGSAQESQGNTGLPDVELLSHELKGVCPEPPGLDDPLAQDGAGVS
Assay: Displacement of [3H]MSX-2 from human recombinant adenosine A2A receptor expressed in CHO cells
Format: cell-based
TEST READOUT: pKi
Numbers only, as −log10 of the molar value.

[[record]]
input_smiles = "CCCn1c(=O)[nH]c2nc(-c3ccc(S(=O)(=O)N4CCN(Cc5ccc(Cl)cc5)CC4)cc3)[nH]c2c1=O"
test_readout = "pKi"
observed_result = 6.48

[[record]]
input_smiles = "CCn1c(=O)[nH]c2nc(-c3ccc(S(=O)(=O)N4CCN(Cc5cccc(F)c5)CC4)cc3)[nH]c2c1=O"
test_readout = "pKi"
observed_result = 6.84

[[record]]
input_smiles = "CCCn1c(=O)[nH]c2nc(-c3ccc(S(=O)(=O)NC4CCN(Cc5ccccc5)CC4)cc3)[nH]c2c1=O"
test_readout = "pKi"
observed_result = 7.02


Please indicate recorded pKi of "CCn1c(=O)[nH]c2nc(-c3ccc(S(=O)(=O)N4CCN(Cc5ccccc5)CC4)cc3)[nH]c2c1=O" measured with Adenosine receptor A2a (Homo sapiens).
6.82
